Target or system: Golgi-associated PDZ and coiled-coil motif-containing protein (Homo sapiens)
Procedure text: untagged CAL PDZ binding inhibitors, primary screen, biochemical, fluorescence polarization, HTS (AID 602252);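 note: 0% = DMSO neutral control and 100% = excess unlabeled competitor peptide PRC23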
Setup conditions: purified CAL PDZ, TMR-peptide fluorescence polarization, 1 h; at 24.9 µM; stronger effect = higher value
Screen size: about 300,000 compounds; about 2,700 (0.9%) were called active. What follows is part of a selection rich in actives, with near analogues and random picks from the rest.
Measured inhibition accompanies every entry in the list below.
Please respond with the number in % and leave the unit unwritten.

Example molecules with recorded inhibition:
{"Molecule": "COc1cc(N=Cc2c(O)c3ccccc3oc2=O)c(OC)cc1Cl", "Target or system": "Golgi-associated PDZ and coiled-coil motif-containing protein (Homo sapiens)", "Reported": 36.3}
{"Molecule": "O=c1ccnc(Nc2ccc(Cl)cc2)[nH]1", "Target or system": "Golgi-associated PDZ and coiled-coil motif-containing protein (Homo sapiens)", "Reported": -6.21}
{"Molecule": "CN(c1ccccc1)S(=O)(=O)c1ccc(NC(=O)COc2ccccc2)cc1", "Target or system": "Golgi-associated PDZ and coiled-coil motif-containing protein (Homo sapiens)", "Reported": -1.05}
{"Molecule": "COc1ccc(CC(=O)NC(C)c2ccc(Cl)c(Cl)c2)cc1S(=O)(=O)N1CCOCC1 (stereo not drawn)", "Target or system": "Golgi-associated PDZ and coiled-coil motif-containing protein (Homo sapiens)", "Reported": -1.91}

Lookup: Which inhibition reading was recorded for the molecule CN(CCc1ccccc1)C(=O)c1cccc(NC(=O)Cc2cccc(NC(=O)C3CCCN(C(=O)CCc4ccccc4)C3)c2)c1 (stereo not drawn) ?
Found: -1.89

Lookup: Would you kindly share the measured inhibition for "COc1ccc(N=Cc2c(O)[nH]c3ccccc23)cc1OC" ?
Found: 0.564

Lookup: Please give the measured inhibition for this molecule: "COc1ccccc1C(=O)Nc1ccc(C)c(S(=O)(=O)N2CCCCC2)c1"
Found: -7.43

Lookup: Return reported inhibition; argument: "CC(C)CNS(=O)(=O)c1ccc(CCC(=O)NCc2ccc(Cl)cc2)cc1"
Found: 0.426

Lookup: Value lookup for inhibition; key = "CCOc1ccc(S(=O)(=O)N2CCN(C(=O)c3oc4ccccc4c3C)CC2)cc1"
Found: 2.11

Lookup: Request the reported inhibition associated with "COc1ccc(CCNc2nc(-c3cccc(NC(C)=O)c3)cs2)cc1OC"
Found: 57.3

Lookup: I would be grateful if you could share the reported inhibition for "CC1(C)N=C(N)NC(Nc2ccc(Cl)cc2)=N1" .
Found: 46.4

Lookup: If you can, please state the reported inhibition value of "Cc1nc(N)[nH]c(=O)c1Oc1cccc(C(F)(F)F)c1" .
Found: 71.1

Lookup: I am curious: what inhibition value has been reported for "COC(=O)c1ccc(NCc2cc(O)ccc2O)cc1" ?
Found: 0.712

Lookup: Quick one: inhibition of "C=CCSc1nc2c(c(=O)[nH]c(=O)n2C)n1Cc1ccccc1" ?
Found: 59.3

Lookup: Field request: inhibition | item: "O=C(Nc1ccccc1)/C(=C\c1ccco1)NC(=O)c1ccco1"
Found: -6.57

----------
Target or system: Golgi-associated PDZ and coiled-coil motif-containing protein (Homo sapiens) (UniProt Q9HD26)
Procedure text: untagged CAL PDZ binding inhibitors, primary screen, biochemical, fluorescence polarization, HTS (AID 602252);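 note: 0% = DMSO neutral control and 100% = excess unlabeled competitor peptide PRC23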
Setup conditions: purified CAL PDZ, TMR-peptide fluorescence polarization, 1 h; at 24.9 µM
About 2,700 (0.9%) of roughly 300,000 compounds were called active.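 Rule for the calls: active = mean inhibition of at least 30% with at least half of replicates also reaching 30%; inconclusive = no clear call, values can overlap the other calls; inactive = the rest.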 The list comes from a sample in which actives are over-represented; it also holds close analogues and randomly drawn compounds.
Choose the fitting class; nothing outside t (active), f (inactive) is accepted.

Lookup: Recorded test call requested for "CC(C)N(C(=O)[C@H]1C[C@H](CC(=O)NCCC2=CCCCC2)C(=O)N2CCc3c([nH]c4cc(CCC(=O)N(C)C)ccc34)[C@]12C)C(C)C"
Found: f

Lookup: Call for entry "CCCCN(CC(=O)Nc1cccc(S(=O)(=O)N2CCCC2)c1)Cc1nc2ccccc2c(=O)[nH]1" :
Found: f

Lookup: Name the outcome recorded for "O=C(N[C@@H]1C/C=C\C[C@@H](CC(=O)N(CCO)Cc2ccccc2)C(=O)N[C@H](Cc2ccccc2)COC1=O)OCC1c2ccccc2-c2ccccc21" in the assay.
Found: f

Lookup: Could you please tell me the result logged for "O=[N+]([O-])c1ccc(C=NN=Cc2ccc([N+](=O)[O-])cc2)cc1" in this assay?
Found: t

Lookup: Recorded test outcome, item "O=C(Cn1c(-c2cncs2)nc2ccccc21)NC1CCCC1"
Found: t

Lookup: // param item: "COC(=O)[C@]1(Cc2ccccc2)N[C@H](CN(C)S(=O)(=O)c2ccc(OC(F)(F)F)cc2)[C@@H]2C(=O)N(C)C(=O)[C@@H]21" ; yields the recorded call
Found: f

Lookup: What classification did "COc1ccccc1NC(=O)Nc1nnc(Cc2ccc(F)cc2)s1" end up with in this test?
Found: t

Lookup: // param item: "Cc1nn(C)c(Oc2ccccc2)c1[N+](=O)[O-]" ; yields the recorded call
Found: f

Lookup: Dear all, I need the recorded test outcome for COc1cccc(/C=C2/SC(=S)N(CC(=O)NC3C=CS(=O)(=O)C3)C2=O)c1 (stereo not given) , thank you.
Found: f

Lookup: Which outcome did this test record for the compound CC1CN(C(=O)c2ccc([N+](=O)[O-])s2)CC(C)O1 (stereo not given) ?
Found: f

----------
Target or system: Golgi-associated PDZ and coiled-coil motif-containing protein (Homo sapiens)
Procedure text: untagged CAL PDZ binding inhibitors, primary screen, biochemical, fluorescence polarization, HTS (AID 602252);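 note: 0% = DMSO neutral control and 100% = excess unlabeled competitor peptide PRC23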
Setup conditions: purified CAL PDZ, TMR-peptide fluorescence polarization, 1 h; at 24.9 µM; stronger effect = higher value
Screen size: about 300,000 compounds; about 2,700 (0.9%) were called active. Shown is part of a subset that was picked to be rich in actives.
Quick list: inhibition per entry.
Provide the reading as a plain figure in %.

{"Molecule": "O=C(NCCC(=O)N1O[C@@H]2C=C[C@H]1C2)OCC1c2ccccc2-c2ccccc21", "Target or system": "Golgi-associated PDZ and coiled-coil motif-containing protein (Homo sapiens)", "inhibition (%)": -5.2}
{"Molecule": "COc1cc2c(cc1OC)C(Cc1cc(OC)c(OC)cc1[N+](=O)[O-])=NCC2", "Target or system": "Golgi-associated PDZ and coiled-coil motif-containing protein (Homo sapiens)", "inhibition (%)": -3.58}
{"Molecule": "CC(C(=O)N1CCOCC1)N1c2cccc3cccc(c23)S1(=O)=O (stereo not given)", "Target or system": "Golgi-associated PDZ and coiled-coil motif-containing protein (Homo sapiens)", "inhibition (%)": 0.599}
{"Molecule": "Cc1cc2c(cc1C)NC1(C[C@H]3CCC(=O)N4CC[C@@H](C1)[C@@H]34)C(=NC(C)(C)CC(C)(C)C)N2 (stereo not given in full)", "Target or system": "Golgi-associated PDZ and coiled-coil motif-containing protein (Homo sapiens)", "inhibition (%)": -3.52}
{"Molecule": "COc1ccc(C(=O)OCc2cc(=O)n3ccsc3n2)cc1F", "Target or system": "Golgi-associated PDZ and coiled-coil motif-containing protein (Homo sapiens)", "inhibition (%)": -3.31}

Lab note: next molecule to report on.
Lookup: Can you look up the measured inhibition of CCC(Oc1ccccc1C)C(=O)Nc1ccc(S(=O)(=O)Nc2cc(C)on2)cc1 (stereo not given) for me?
Found: 71.5

----------
Target or system: Golgi-associated PDZ and coiled-coil motif-containing protein (Homo sapiens) (UniProt Q9HD26)
Procedure text: untagged CAL PDZ binding inhibitors, primary screen, biochemical, fluorescence polarization, HTS (AID 602252);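 note: 0% = DMSO neutral control and 100% = excess unlabeled competitor peptide PRC23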
Setup conditions: purified CAL PDZ, TMR-peptide fluorescence polarization, 1 h; at 24.9 µM; stronger effect = higher value
About 2,700 (0.9%) of roughly 300,000 compounds were called active. The list comes from a sample in which actives are over-represented; it also holds close analogues and randomly drawn compounds.
Items are presented alongside their recorded inhibition.

{"Compound": "NN=C(NN=Cc1ccccc1)c1ccccc1", "inhibition": "-2.94% (inactive)"}

Lookup: If you can, please state the reported inhibition value of CC1CC(C)CN(C(=O)C2CC(=O)N(c3ccc(F)cc3)C2)C1 (stereo not given) .
Found: -2.8% (inactive)

Lookup: Query (compound): "CN1CCN(C(=O)c2ccc(-c3ccc(Br)cc3)o2)CC1" ; field requested: inhibition
Found: -4.62% (inactive)

Lookup: Given "Cc1ccc(C(=O)Nc2ncccc2C)cc1S(=O)(=O)N1CCOCC1" , state its recorded inhibition.
Found: -3.36% (inactive)

Lookup: Please report the recorded inhibition for "CN(Cc1ccc(F)cc1)C(=O)COc1ccc2ccccc2c1" .
Found: -2.25% (inactive)

Lookup: What does the data say about its inhibition? Entry: "CCO[C@H]1OC(C(=O)N2CCCCCCC2)=C[C@@H](c2ccc(C(F)(F)F)cc2)[C@@H]1CCCO"
Found: -1.81% (inactive)

Lookup: Please report the recorded inhibition for "S=C(c1ccccc1)N1CCCC1" .
Found: -2.69% (inactive)

Lookup: Give the measured inhibition of "N#CC1(Nc2ccc(-c3ccc(Cl)cc3)cc2)CCCC1" .
Found: -1.39% (inactive)

Lookup: Can you share its inhibition? I mean this compound: COc1ccccc1C(CNC(=O)c1ccc(C)c(S(=O)(=O)N2CCCCC2)c1)N(C)C (stereo not given)
Found: -4.72% (inactive)

Lookup: inhibition lookup needed for "O=C(Nc1c(Br)cc2c(c1Br)Cc1cc([N+](=O)[O-])ccc1-2)C(Cl)Cl" , thanks.
Found: -7.68% (inactive)
